- Test System: Transient receptor potential cation channel subfamily A member 1 (Homo sapiens, UniProt O75762)
- Sequence (O75762 whole entry): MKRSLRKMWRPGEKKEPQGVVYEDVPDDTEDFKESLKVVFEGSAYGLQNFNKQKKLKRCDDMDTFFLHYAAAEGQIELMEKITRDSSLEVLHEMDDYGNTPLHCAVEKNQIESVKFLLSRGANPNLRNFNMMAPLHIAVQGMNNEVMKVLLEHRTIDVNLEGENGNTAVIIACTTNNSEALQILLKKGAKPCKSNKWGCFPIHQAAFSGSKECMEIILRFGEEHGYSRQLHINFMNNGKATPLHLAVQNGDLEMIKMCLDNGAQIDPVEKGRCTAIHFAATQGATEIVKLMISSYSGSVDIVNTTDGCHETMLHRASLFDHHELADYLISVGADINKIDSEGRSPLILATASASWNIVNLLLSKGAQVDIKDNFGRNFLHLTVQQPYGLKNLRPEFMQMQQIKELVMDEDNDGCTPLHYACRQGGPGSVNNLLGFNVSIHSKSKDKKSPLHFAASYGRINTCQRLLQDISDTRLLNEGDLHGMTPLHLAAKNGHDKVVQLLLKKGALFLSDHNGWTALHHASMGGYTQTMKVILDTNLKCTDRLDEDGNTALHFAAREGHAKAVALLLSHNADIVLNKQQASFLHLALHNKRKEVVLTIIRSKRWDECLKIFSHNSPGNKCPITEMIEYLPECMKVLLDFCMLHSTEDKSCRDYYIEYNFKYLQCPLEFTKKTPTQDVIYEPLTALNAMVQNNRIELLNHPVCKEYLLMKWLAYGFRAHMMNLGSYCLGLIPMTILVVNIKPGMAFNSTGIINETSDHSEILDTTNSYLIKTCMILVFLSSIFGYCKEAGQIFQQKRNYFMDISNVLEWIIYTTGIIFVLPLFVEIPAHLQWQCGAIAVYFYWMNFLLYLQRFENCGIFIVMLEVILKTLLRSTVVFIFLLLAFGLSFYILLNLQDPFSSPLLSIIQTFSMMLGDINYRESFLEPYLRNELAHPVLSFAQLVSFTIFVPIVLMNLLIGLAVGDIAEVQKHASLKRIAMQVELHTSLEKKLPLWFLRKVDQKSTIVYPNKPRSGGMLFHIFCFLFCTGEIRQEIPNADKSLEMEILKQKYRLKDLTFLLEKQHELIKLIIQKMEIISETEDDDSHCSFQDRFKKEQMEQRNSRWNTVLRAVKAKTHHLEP
- Experiment: Antagonist activity at human TRPA1 expressed in CHO-TREX cells assessed as inhibition of cinnamaldehyde-induced calcium flux incubated 10 mins prior to cinnamaldehyde addition by FLIPR assay relative to control
- Type: cell-based
Metric: IC50 (nM)

1) Fc1ccc(-c2ccc3[nH]ncc3c2)c(C(F)(F)F)c1 30000
2) COCc1cc2[nH]ncc2cc1-c1ccccc1C(F)(F)F 142
3) CC(C)Oc1cc2[nH]ncc2cc1-c1ccccc1C(F)(F)F 970
4) Cc1cc2[nH]ncc2cc1-c1ccccc1C(F)(F)F 15
5) FC(F)(F)c1ccccc1-c1cc2cn[nH]c2cc1OCC1CC1 26
6) Fc1ccc(C(F)(F)F)c(-c2ccc3[nH]ncc3c2)c1 306
7) Fc1ccccc1-c1ccc2[nH]ncc2c1 3950
8) N#Cc1ccccc1-c1ccc2[nH]ncc2c1 1290
9) Cn1ncc2cc(-c3ccccc3C(F)(F)F)ccc21 7410
10) CC(C)(C)c1ccccc1-c1ccc2[nH]ncc2c1 3400
11) CCOc1cc2[nH]ncc2cc1-c1ccccc1C(F)(F)F 39

###

- Experiment: Half life in Wistar rat at 5 mg/kg, iv
- Format: ADME, organism-based
- Parameters: dose 5 mg/kg, route intravenous
- Test Settings: in vivo
Metric: half-life (h)

1. Cc1cc2[nH]ncc2cc1-c1ccccc1C(F)(F)F 4.3

###

- Test System: Transient receptor potential cation channel subfamily A member 1 (Rattus norvegicus)
- Experiment: Antagonist activity at rat TRPA1 expressed in CHO-TREX cells assessed as inhibition of cinnamaldehyde-induced calcium flux incubated 10 mins prior to cinnamaldehyde addition by FLIPR assay relative to control
- Assay type: cell-based
- Parameters: concentration or dose not given beside the values
Metric: inhibition (%)

1) Cc1cc2[nH]ncc2cc1-c1ccccc1C(F)(F)F 99
2) COc1cc2[nH]ncc2cc1-c1ccccc1C(F)(F)F 99
3) FC(F)(F)c1ccccc1-c1ccc2[nH]ncc2c1 98
4) FC(F)(F)Oc1cc2[nH]ncc2cc1-c1ccccc1C(F)(F)F 100
5) FC(F)(F)c1ccccc1-c1cc2cn[nH]c2cc1OCC1CC1 99
6) FC(F)(F)c1ccccc1-c1cc2cn[nH]c2cc1Cl 98

###

- Experiment: Clearance in Wistar rat at 1 mg/kg, iv
- Assay type: ADME, organism-based
- Parameters: dose 1 mg/kg, route intravenous
- Test Settings: in vivo
Metric: clearance (mL/min/kg)

1. COc1cc2[nH]ncc2cc1-c1ccccc1C(F)(F)F 35.5

###

- Experiment: Half life in Balb/C mouse at 5 mg/kg, iv
- Format: ADME, organism-based
- Set-up: dose 5 mg/kg, route intravenous
- Test Settings: in vivo
Metric: half-life (h)

1) Cc1cc2[nH]ncc2cc1-c1ccccc1C(F)(F)F 3.64

###

Entries annotated with measured half-life
- Experiment: Half life in Wistar rat at 3 mg/kg, iv
- Type: ADME, organism-based
- Design: dose 3 mg/kg, route intravenous
- Test Settings: in vivo
Metric: half-life (h)

1) FC(F)(F)c1ccccc1-c1cc2cn[nH]c2cc1Cl 3.4
2) FC(F)(F)c1ccccc1-c1ccc2[nH]ncc2c1 3.5
3) FC(F)(F)c1ccccc1-c1cc2cn[nH]c2cc1OCC1CC1 1.1
